assay: NCI Yeast Anticancer Drug Screen. Data for the sgs1 mgt1 strain (AID 161);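 further: 0% = growth of cultures given vehicle only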; conditions: S. cerevisiae sgs1 mgt1 strain, at 50.0 µM, hits give high values
The panel holds about 79,000 compounds, 15% with a hit somewhere; the sample as a whole holds those more often.
observed.property: growth inhibition (%)
Please respond with the number in % and leave the unit unwritten.

Check out these entries, answers already filled in.
Query: Would you mind telling me what growth inhibition value was observed for `Cc1ccc(F)cc1NC(=O)O/N=C(\Cl)C(C)C` ?
Response: -5.7

Query: And then CCCCCCCCCCCCC/C=C/[C@H]1[C@@H](C(=O)OC)N1S(=O)c1ccc(C)cc1 (some centres undefined) , what is it?
Response: 1.25

Query: And then COC(=O)/C(=N\NC(=S)NN)C(C(=O)OC)C(=O)C(=O)Nc1cccc(C(F)(F)F)c1 (centres undefined) , what is it?
Response: 8.9

In the following, a different compound is considered.
Query: Would you mind telling me what growth inhibition value was observed for `CC(=O)c1ccc(NC(=O)/C(CC(=O)/C=C/c2ccccc2)=N/NC(N)=S)cc1` ?
Response: 23.9

====

assay: NCI Yeast Anticancer Drug Screen. Data for the bub3 strain (AID 167); settings: S. cerevisiae bub3 mutant strain, at 50.0 µM
Compounds without any hit were thinned out: in the full panel of roughly 79,000, 15% have a hit. Active and inactive are the calls of the source. Rule as the data show it: active = growth inhibition above about 70%; inactive = the rest.
Respond using exactly one of the listed classes: active, inactive

Answered examples (5):
Query: How did this test come out for `CC(=O)[CH-]C(=O)c1ccccc1.CC(=O)[CH-]C(=O)c1ccccc1.O=S(=O)([O-])c1cc([O-])c2c([O-])cc(S(=O)(=O)[O-])cc2c1.[Na+].[Zr+4]` ?
Response: inactive

Query: And then CC(C)=CCc1cc(C2COc3cc4c(c(O)c3C2=O)C=CC(C)(C)O4)c(O)cc1O (stereo unspecified) , what is it?
Response: active

Query: And then `CC(=O)c1ccc(NC(=O)/C(CC(=O)/C=C/c2ccccc2)=N/NC(N)=S)cc1` , what is it?
Response: inactive

Query: And then O=C1NC(N/N=C\C(O)C(O)C(O)C(O)CO)=N/C1=C\c1ccc(Cl)cc1 (stereo unspecified) , what is it?
Response: inactive

Query: And then NC(=O)CC1OC(=O)Cc2cc3c(c(O)c21)C(=O)c1c(O)cccc1C3=O (stereo unspecified) , what is it?
Response: inactive

New cases:
Query: How did this test come out for C=CC(COC(=O)C(C)(C)OC(C)=O)c1ccc(OC(=O)C(C)C)c(OC)c1 (stereo unspecified) ?
Response: inactive

Query: And then CCC1OC2(C)CC(C#N)(C#N)C1(C#N)C(=N)O2 (stereo unspecified) , what is it?
Response: inactive

Query: And then C=C1C(=O)OC2CC(C)C3(O)CCC(=O)C3(C)CC12 (stereo unspecified) , what is it?
Response: inactive

Query: And then `CCn1c2c(c3ccccc3c1=O)C(=O)c1ccccc1-2` , what is it?
Response: inactive

Query: And then Cc1c(CNc2ccc(C(=O)NC(CC(=O)O)C(=O)O)cc2)ccc2nc(N)nc(N)c12 (stereo unspecified) , what is it?
Response: inactive

Query: And then `OCC(CO)(CO)COCC(CO)(CO)COCC(CO)(CO)CO` , what is it?
Response: inactive

Query: And then `CC(=N/N=C/c1ccccn1)/C(C)=N/N=C(C)/C(C)=N/N=C(C)/C(C)=N/N=C(C)/C(C)=N\N=C\c1ccccn1` , what is it?
Response: inactive

Query: And then `C[C@@H]1CC[C@H]2C(C)(C)[C@H]3C[C@@]12CC[C@@]3(C)O` , what is it?
Response: inactive

Query: And then NC1N=C(c2ccc(Cl)cc2)C2=C(N1)c1ccccc1CC2 (stereo unspecified) , what is it?
Response: inactive

====

assay: NCI Yeast Anticancer Drug Screen. Data for the rad50 strain (AID 155);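 further: 0% = growth of vehicle-only cultures of the same strain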; conditions: S. cerevisiae rad50 strain growth inhibition; at 50.0 µM; hits give high values
This is part of a sample that, as a whole, favours compounds with a hit. Of some 79,000 tested, about 15% had one in any assay.
Items are presented alongside their recorded growth inhibition.
Please respond with the number in % and leave the unit unwritten.

Check out these entries, answers already filled in.
Query: Would you mind telling me what growth inhibition value was observed for COc1ccc(C(=O)CC2CCCC(CC(=O)c3ccc(OC)cc3)N2C)cc1 (stereo not drawn) ?
Response: 5.4

Query: And then CC1(c2ccc3ccccc3c2)CCC(=O)O1 (stereo not drawn) , what is it?
Response: -2.75

Query: And then `S=C=NC1CCCCCCCCCCC1` , what is it?
Response: 18.9

Query: And then `COc1cc(N(CCC#N)CCC#N)ccc1/C(N=Nc1ccc(Cl)cc1)=N/NC(=O)c1cc(Br)ccc1O` , what is it?
Response: 7.6

Query: And then NC(=O)C(c1ccccc1)N1CCCC1 (stereo not drawn) , what is it?
Response: 2.05

New cases:
Query: Would you mind telling me what growth inhibition value was observed for `COc1ccc(-c2cc(=O)c3ccc(O)cc3o2)cc1` ?
Response: 7.55

Query: And then Cc1ccc(N2C(=O)CC(Sc3ccccc3N)C2=O)cc1Cl (stereo not drawn) , what is it?
Response: -15.5

Query: And then CCOC(=O)C(=O)C(CCC(=O)c1ccc2ccccc2c1O)C(=O)OCC (stereo not drawn) , what is it?
Response: 2.6

====

test: NCI Yeast Anticancer Drug Screen. Data for the sgs1 mgt1 strain (AID 161);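 further: 0% = growth of cultures given vehicle only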; details: S. cerevisiae sgs1 mgt1 strain, at 50.0 µM, hits give high values
Compounds without any hit were thinned out: in the full panel of roughly 79,000, 15% have a hit.
Items are presented alongside their recorded growth inhibition.
Please respond with the number in % and leave the unit unwritten.

Query: Would you mind telling me what growth inhibition value was observed for CC1(C)Oc2ccc3c(=O)cc(-c4ccc(F)cc4)oc3c2C1C(=O)O (configuration not stated) ?
Response: -12.2

Query: And then `C=CCn1c2c(c3ccccc3c1=O)C(=O)c1ccccc1-2` , what is it?
Response: 1.7

Query: And then `O=C1NC(N/N=C\c2ccccc2)=N/C1=C/c1ccc(Cl)cc1` , what is it?
Response: 11.7

Query: And then N/N=C(\C(=O)Nc1ccc([N+](=O)[O-])cc1)C(C1=Nc2cc([N+](=O)[O-])ccc2NC1)[N+](=O)[O-] (configuration not stated) , what is it?
Response: 12.8

New cases:
Query: Would you mind telling me what growth inhibition value was observed for Clc1ccc(C2NN=C3c4ccccc4OCC32)cc1 (configuration not stated) ?
Response: -3

Query: And then CC1OC(Oc2c(-c3cc(O)c(O)c(O)c3)oc3cc(O)cc(O)c3c2=O)C(O)C(O)C1O (configuration not stated) , what is it?
Response: -8

Query: And then CC(C)Cc1ccc(C(C)C(=O)O)cc1 (configuration not stated) , what is it?
Response: -4.5

Query: And then `Cc1cc(N(CCC#N)CCC#N)ccc1/C=N/NC(=O)c1cc(Cl)ccc1O` , what is it?
Response: -40.8

Query: And then `O=C1C=CC=C/C1=C1\N=C(c2ccccc2OCC(=O)c2ccc(Br)cc2)SS1` , what is it?
Response: 12.8

====

Items are presented alongside their recorded growth inhibition.
assay: NCI Yeast Anticancer Drug Screen. Data for the mec2-1 strain (AID 157); details: S. cerevisiae mec2-1 strain, at 50.0 µM, hits give high values
This is part of a sample that, as a whole, favours compounds with a hit. Of some 79,000 tested, about 15% had one in any assay.
Please respond with the number in % and leave the unit unwritten.

Query: Would you mind telling me what growth inhibition value was observed for `Nc1nc(N)nc(-c2ccccc2Cl)n1` ?
Response: -10.8

New cases:
Query: Would you mind telling me what growth inhibition value was observed for NC(=O)CC1OC(=O)Cc2cc3c(c(O)c21)C(=O)c1c(O)cccc1C3=O (configuration not stated) ?
Response: 3.55

Query: And then NC(CCC(=O)OCc1ccccc1)C(=O)OCc1ccccc1 (configuration not stated) , what is it?
Response: -14.3

Query: And then `COc1cc([C@H]2OC[C@H]3[C@@H]2CO[C@@H]3c2cc(OC)c3c(c2)OCO3)cc(OC)c1OC` , what is it?
Response: -2.25

Query: And then `O=C1NC(N/N=C\c2ccccc2)=N/C1=C/c1ccccc1` , what is it?
Response: 5.2

Query: And then CC(O)Cn1cnc2c1c(=O)n(C)c(=O)n2C (configuration not stated) , what is it?
Response: -42.8

Query: And then `C/C(O)=C/c1nc2sc(C)c(C)c2c(=O)s1` , what is it?
Response: 9.35

Query: And then O=C(O)COC1CC(=O)N2c3ccccc3C34CCN5C(=O)C(=O)C(CC53)C1C24 (configuration not stated) , what is it?
Response: -24.9

Query: And then `C[n+]1ccccc1/C=C/c1cccc(O)c1` , what is it?
Response: -19.9

Query: And then COc1cc2c(cc1O)C(Cc1ccc(OC)c(OC)c1)N(C)CC2 (configuration not stated) , what is it?
Response: 0.85

Query: And then `Cc1ccc(CNc2ccc(F)cc2)cc1` , what is it?
Response: 28.9

Query: And then `O=C1OC(c2ccc(Cl)cc2)=N/C1=C\c1ccccc1` , what is it?
Response: -5.5
